Reported values of standardized gMFI for individual entries
Biological target: T1, 9A
T1 construct: also called HLA-A2 / point-mutant NY-ESO peptide 9A complex on T2 cells
Test: flow cytometry on peptide-pulsed T2 cells, scFv 100 nM

# BINDER, standardized gMFI
data = [
    ("NYC-0004 (scFv, not shown: small tags and cut ends, also called T1 scFv; NYC-0004 tag adduct) scFv: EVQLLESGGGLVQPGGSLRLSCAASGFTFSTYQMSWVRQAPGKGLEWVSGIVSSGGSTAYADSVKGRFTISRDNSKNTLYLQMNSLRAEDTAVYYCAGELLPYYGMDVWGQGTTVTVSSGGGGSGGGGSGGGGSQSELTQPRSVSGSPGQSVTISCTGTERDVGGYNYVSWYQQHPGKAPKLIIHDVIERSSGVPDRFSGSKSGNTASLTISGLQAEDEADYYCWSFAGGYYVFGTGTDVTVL", 7.99),
    ("NYA-2060 (scFv, also called NYA-2060 tag adduct) scFv: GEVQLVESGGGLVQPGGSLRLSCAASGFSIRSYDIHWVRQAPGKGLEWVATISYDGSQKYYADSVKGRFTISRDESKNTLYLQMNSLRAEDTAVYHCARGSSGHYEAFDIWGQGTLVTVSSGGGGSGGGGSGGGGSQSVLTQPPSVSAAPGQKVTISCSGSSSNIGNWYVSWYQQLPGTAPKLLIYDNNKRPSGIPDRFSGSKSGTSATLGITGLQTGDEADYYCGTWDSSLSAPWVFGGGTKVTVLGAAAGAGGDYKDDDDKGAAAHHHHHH", 9.48),
    ("NYA-0001 (scFv, also called NYA-0001 tag adduct; NY-R119 expressed in a cultured mammalian cell) scFv: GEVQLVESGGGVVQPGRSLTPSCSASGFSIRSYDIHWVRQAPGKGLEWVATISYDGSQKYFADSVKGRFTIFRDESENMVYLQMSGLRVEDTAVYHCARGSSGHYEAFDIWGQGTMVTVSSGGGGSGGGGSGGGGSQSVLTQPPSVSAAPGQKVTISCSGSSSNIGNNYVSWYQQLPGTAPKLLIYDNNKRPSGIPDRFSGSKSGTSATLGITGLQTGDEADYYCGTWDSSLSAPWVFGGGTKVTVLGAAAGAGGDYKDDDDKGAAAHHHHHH", 6.56),
]
